# credit: PubChem BioAssay (NCATS)

Assay: qHTS for Inflammasome Signaling Inhibitors: IL-1-beta AlphaLISA screen against the NCATS CANVASS Library (AID 1347379);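 further: human THP-1 cells primed with LPS then triggered with ATP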
Details: THP-1 LPS/ATP, IL-1B AlphaLISA secretion, 16 h; series mostly up to 57.5 µM
Results filed as inconclusive are left out. Activity calls are given as the source filed them. The call rests on the fitted dose curve; in most records, active means well fitted inhibition curve with a large enough effect; inconclusive means small, poorly fitted or top-dose-only effect; inactive means flat fitted curve, though single readings scatter.
Please answer using one outcome listed in active, inactive

Check out these entries, answers already filled in.
[
  {
    "Smiles input": "CCCCCCCCC[C@@H]1C[C@@H]2CC[C@H]3[C@@H](C(=O)OCCCCN=C(N)N)[C@@H](C)N=C(N1)N23",
    "Assigned category": "active"
  },
  {
    "Smiles input": "O=Cc1ccc2n1C[C@@]1(C[C@H](O)[C@@H](CO)O1)OC2",
    "Assigned category": "inactive"
  },
  {
    "Smiles input": "CC1=CC[C@@]2(C[C@@H]1O)[C@@H](C(=O)O)CC[C@H]2C(C)C",
    "Assigned category": "inactive"
  },
  {
    "Smiles input": "C=CC(C)(C)C(=O)[C@@H](C)[C@@H]1CC[C@](C)(C=C)O1",
    "Assigned category": "inactive"
  }
]

[Q] Dear all, I need the recorded test outcome for C[C@H]1C[C@@H]([C@@H]2CC[C@]34O[C@H](CC[C@@]35C[C@H](C)C(=O)O5)CN24)OC1=O , thank you.
[A] inactive

###

Test system: Tov112D
Test: Primary qHTS to identify gynecologic anti-cancer compounds using libraries of approved drugs and bioactive compounds (AID 1345084); further: nearly all actives have a fitted effect of over 55% in size
Settings: Gynecologic cancer cell panel viability, ATPlite luminescence, 48 h; series mostly up to 57.5 µM
Results filed as inconclusive are left out. Activity calls are given as the source filed them. Calls come from the whole dose curve; as a rule, active = well fitted cell-killing curve with a large enough effect; inconclusive = small, poorly fitted or top-dose-only effect, or effect the other way; inactive = flat fitted curve, though single readings scatter.
Please answer using one outcome listed in active, inactive

Check out these entries, answers already filled in.
[
  {
    "Compound": "OC(CNCCc1c[nH]c2ccccc12)Cn1c2ccccc2c2ccccc21 (stereo not drawn)",
    "Assigned category": "inactive"
  },
  {
    "Compound": "CC1(C)SC2C(NC(=O)[C@H](C(=O)O)c3ccsc3)C(=O)N2C1C(=O)O (stereo partly drawn)",
    "Assigned category": "inactive"
  },
  {
    "Compound": "CC[C@]1(O)C[C@H]2CN(CCC3C(=Nc4ccccc43)[C@@](C(=O)OC)(c3cc4c(cc3OC)N(C)[C@H]3[C@@](O)(C(N)=O)[C@H](O)[C@]5(CC)C=CCN6CC[C@]43[C@@H]65)C2)C1 (stereo partly drawn)",
    "Assigned category": "active"
  },
  {
    "Compound": "COc1cc(O)ccc1OCCNCC(O)COc1cccc2[nH]c3ccccc3c12 (stereo not drawn)",
    "Assigned category": "inactive"
  }
]

API: the following record is the query input.
[Q] Dear all, I need the recorded test outcome for COc1cc2ncnc(Oc3cccc(NC(=O)Nc4cc(C(C)(C)C(F)(F)F)on4)c3)c2cc1OC , thank you.
[A] inactive

###

Experiment: P-glycoprotein substrates identified in KB-8-5-11 adenocarcinoma cell line, qHTS therapeutic library screen (AID 1346987); further: nearly all actives have a fitted effect of over 65% in size
Details: KB-8-5-11 (P-gp overexpressing) viability, CellTiter-Glo, 72 h; series mostly up to 44.5 µM
Results filed as inconclusive are left out. Calls of active or inactive are those of the source. Calls follow the shape of the dose curve; as a rule, active = well fitted inhibition curve with a large enough effect; inconclusive = small, poorly fitted or top-dose-only effect; inactive = flat fitted curve, though single readings scatter.
Please answer using one outcome listed in active, inactive

Check out these entries, answers already filled in.
[
  {
    "Molecule": "CN[C@@H]1C[C@H]2O[C@@](C)([C@@H]1OC)n1c3ccccc3c3c4c(c5c6ccccc6n2c5c31)C(=O)N[C@H]4O",
    "Assigned category": "active"
  },
  {
    "Molecule": "CC(C)C(=O)OC[C@@]1(N=[N+]=[N-])O[C@@H](n2ccc(N)nc2=O)[C@H](OC(=O)C(C)C)[C@@H]1OC(=O)C(C)C",
    "Assigned category": "inactive"
  },
  {
    "Molecule": "CSc1nc(N)cc(Oc2ccc(-c3nc(Nc4cccc(C(F)(F)F)c4)n[nH]3)cc2)n1",
    "Assigned category": "active"
  }
]

[Q] Dear all, I need the recorded test outcome for COC(=O)[C@]12CCC(C)(C)C[C@@H]1[C@@H]1C(=O)C=C3[C@]4(C)C=C(C#N)C(=O)C(C)(C)[C@@H]4CC[C@@]3(C)[C@]1(C)CC2 , thank you.
[A] active

[Q] Dear all, I need the recorded test outcome for COc1ccccc1-c1cc(Nc2cccc(CS(N)(=O)=O)c2)ncn1 , thank you.
[A] inactive

[Q] Dear all, I need the recorded test outcome for CC(=O)C1=C(O)C2c3c[nH]c4cccc(c34)CC2C(C)(C)N(C)C1=O (configuration not stated) , thank you.
[A] active

[Q] Dear all, I need the recorded test outcome for C[n+]1cc(NC(=O)c2cccc(C(=O)Nc3cc4ccccc4[n+](C)c3)n2)cc2ccccc21 , thank you.
[A] inactive

[Q] Dear all, I need the recorded test outcome for CC1CCN(c2cc(NC(=O)c3ccccc3)ncn2)CC1 , thank you.
[A] active

[Q] Dear all, I need the recorded test outcome for COc1ccc2cc1Oc1ccc(cc1)CC1c3cc(c(OC)cc3CCN1C)Oc1c(OC)c(OC)c(OC)c3c1C(C2)N(C)CC3 (configuration not stated) , thank you.
[A] inactive

[Q] Dear all, I need the recorded test outcome for BrC1C(Br)C(Br)C(Br)C(Br)C1Br (configuration not stated) , thank you.
[A] inactive

[Q] Dear all, I need the recorded test outcome for C=C1[C@@H](C2=CC(=O)OC2)CC[C@@]2(O)[C@@H]1CC1[C@H]2CC[C@@H]2C[C@@H](O[C@H]3O[C@@H](C)[C@@H](O[C@@H]4O[C@H](CO[C@@H]5O[C@H](CO)[C@@H](O)[C@H](O)[C@H]5O)[C@@H](O)[C@H](O)[C@H]4O)[C@H](OC)[C@H]3O)CC[C@]12C (some centres not stated) , thank you.
[A] active

[Q] Dear all, I need the recorded test outcome for CCCCCCC(=O)O[C@H]1CC[C@H]2[C@@H]3CCc4cc(O)ccc4[C@H]3CC[C@]12C , thank you.
[A] active

[Q] Dear all, I need the recorded test outcome for O=C(Nc1ccc(F)cc1)N1CCc2ccccc2C1c1ccc(C(F)(F)F)cc1 (configuration not stated) , thank you.
[A] active

[Q] Dear all, I need the recorded test outcome for CN1CCN(C(=O)c2ccc(Nc3nccc(-c4cccs4)n3)cc2Cl)CC1 , thank you.
[A] active

[Q] Dear all, I need the recorded test outcome for O=C(NOCCO)c1ccc2cncn2c1Nc1ccc(I)cc1F , thank you.
[A] inactive

[Q] Dear all, I need the recorded test outcome for Cc1cn([C@H]2C[C@H](O)[C@@H](CO)O2)c(=O)nc1N , thank you.
[A] inactive

[Q] Dear all, I need the recorded test outcome for CCOc1ccc(/C=C2\SC(=O)N(CCN)C2=O)cc1 , thank you.
[A] inactive

[Q] Dear all, I need the recorded test outcome for CN(C)CC1CCn2cc(c3ccccc32)C2=C(C(=O)NC2=O)c2cn(c3ccccc23)CCO1 (configuration not stated) , thank you.
[A] inactive

[Q] Dear all, I need the recorded test outcome for O=C(NNc1ccccc1)c1ccncc1 , thank you.
[A] inactive

[Q] Dear all, I need the recorded test outcome for Cc1ccc(NS(=O)(=O)c2cc3c(cc2N[C@@H](C)CO)NC(=O)CC3)cc1Cl , thank you.
[A] inactive

###

Assay: J3T Cancer Cell Toxicity qHTS against the NCATS CANVASS Library (AID 1347371)
Details: J3T dog glioma viability, ATP luminescence, 72 h; series mostly up to 46.1 µM
Inconclusive results are not listed. Active and inactive are the calls of the source. The call rests on the fitted dose curve; in most records, active means well fitted cell-killing curve with a large enough effect; inconclusive means small, poorly fitted or top-dose-only effect; inactive means flat fitted curve, though single readings scatter.
Please answer using one outcome listed in 1.0 = active, 0.0 = inactive

Check out these entries, answers already filled in.
[
  {
    "Compound": "COc1ccc2cc(NC(=O)C3=NO[C@H]4[C@H](O)C=C[C@@H](Cl)[C@@]4(O)C3)c(=O)oc2c1OC",
    "Assigned category": 0.0
  },
  {
    "Compound": "C/C=C1/CC[C@@H]2c3[nH]c4ccccc4c3CCN2C1",
    "Assigned category": 0.0
  },
  {
    "Compound": "COc1c(O)cc2oc(-c3ccccc3)cc(=O)c2c1O",
    "Assigned category": 0.0
  },
  {
    "Compound": "CC(C)=CCC/C(C)=C/Cc1c(O)c(CC=C(C)C)c(O)c2c(=O)c3cc(O)ccc3oc12",
    "Assigned category": 0.0
  }
]

[Q] Dear all, I need the recorded test outcome for CN1CC[C@]2(c3cccc4c3N[C@@H]3N(C)CC[C@]43[C@@]34CCN(C)[C@@H]3Nc3c([C@]56CCN(C)[C@H]5Nc5ccccc56)cccc34)c3ccccc3N[C@H]12 , thank you.
[A] 1.0

[Q] Dear all, I need the recorded test outcome for C[C@@H](O)[C@H]1OC(=O)C=C2[C@]3(C)[C@H]4[C@H](OC(=O)[C@@]4(C)[C@@H](O)[C@H]4O[C@H]43)[C@H]3O[C@@]231 , thank you.
[A] 1.0

[Q] Dear all, I need the recorded test outcome for C/C1=C/[C@@H](C)[C@H](O)C/C=C/CC/C=C/C(=O)O[C@@H]1[C@H](C)C(=O)/C=C/CC1CC(=O)NC(=O)C1 , thank you.
[A] 1.0

[Q] Dear all, I need the recorded test outcome for CC1(C)[C@H](Br)CC[C@]23C[C@]4(C)C(=O)CC12C[C@H]34 , thank you.
[A] 0.0
